target: NLRP3 (Homo sapiens, UniProt Q96P20); construct: endogenous in cells; experiment: IL-1β (interleukin-1β) secretion in IFN-γ-differentiated, LPS/ATP-stimulated THP-1 cells (half inhibition rate of NLRP3); conditions: IFN-γ 25 ng/mL, LPS 50 ng/mL, ATP 5 mM
Sequence (Q96P20 whole entry): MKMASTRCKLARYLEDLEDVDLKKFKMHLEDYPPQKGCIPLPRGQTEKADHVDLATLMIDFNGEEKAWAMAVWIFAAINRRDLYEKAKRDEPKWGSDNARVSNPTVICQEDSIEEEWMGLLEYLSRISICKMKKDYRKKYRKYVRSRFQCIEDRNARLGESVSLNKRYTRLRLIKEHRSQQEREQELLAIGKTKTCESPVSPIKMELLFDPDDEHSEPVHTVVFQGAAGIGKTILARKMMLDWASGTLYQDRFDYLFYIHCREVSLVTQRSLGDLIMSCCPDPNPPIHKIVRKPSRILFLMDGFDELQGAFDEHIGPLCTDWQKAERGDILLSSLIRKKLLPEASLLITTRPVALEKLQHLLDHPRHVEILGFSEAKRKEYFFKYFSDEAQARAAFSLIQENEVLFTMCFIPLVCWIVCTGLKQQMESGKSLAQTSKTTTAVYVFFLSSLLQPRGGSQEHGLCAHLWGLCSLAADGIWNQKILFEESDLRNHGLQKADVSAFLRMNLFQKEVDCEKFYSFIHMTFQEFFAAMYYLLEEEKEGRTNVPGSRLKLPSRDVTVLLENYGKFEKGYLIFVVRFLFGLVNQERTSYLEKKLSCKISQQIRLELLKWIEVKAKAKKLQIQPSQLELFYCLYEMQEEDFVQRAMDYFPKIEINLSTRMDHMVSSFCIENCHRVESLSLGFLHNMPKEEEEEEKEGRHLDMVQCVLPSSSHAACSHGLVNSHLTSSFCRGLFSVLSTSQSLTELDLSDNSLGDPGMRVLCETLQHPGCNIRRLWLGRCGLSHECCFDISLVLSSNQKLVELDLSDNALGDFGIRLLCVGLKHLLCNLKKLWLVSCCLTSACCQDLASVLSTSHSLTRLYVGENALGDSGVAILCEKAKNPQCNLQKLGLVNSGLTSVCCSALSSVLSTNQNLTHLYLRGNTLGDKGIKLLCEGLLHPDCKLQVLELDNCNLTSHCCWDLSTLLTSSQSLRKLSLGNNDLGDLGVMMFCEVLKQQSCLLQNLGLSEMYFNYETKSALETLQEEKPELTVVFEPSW
Here the recorded IC50 is given for each entry.
METRIC_NAME: IC50

1. Oc1cc(C(F)(F)F)ccc1-c1nnc(N[C@@H]2CCCC[C@H]2O)c2ccccc12
4.7 nM
2. CN1CCC[C@@H](Nc2nnc(-c3ccc(C(F)(F)F)cc3O)c3c(F)cccc23)C1
2.9 nM
3. Cc1nc(N[C@@H]2CCCN(C3CC3)C2)nnc1-c1ccc(C(F)(F)F)cc1O
1.5 nM
4. Cc1cc(C)c(-c2cnc(N[C@@H]3CCCN(C4CC4)C3)nn2)c(O)c1
7.4 nM
5. Oc1cc(C(F)(F)F)cc(F)c1-c1nnc(N[C@@H]2CCCC[C@H]2O)c2ncccc12
9.5 nM
6. Cc1cc(C(F)(F)F)cc(O)c1-c1cnc(N[C@H]2C[C@@](C)(O)C2)nn1
12.4 nM
7. Oc1cc(C(F)(F)F)ccc1-c1nnc(N[C@@H]2CCCC[C@H]2O)c2c1CCC2
34.8 nM
8. Cc1cc(C)c(-c2nnc(N[C@@H]3CCCN(C)C3)nn2)c(O)c1
446 nM

* * *

Here the recorded pIC50 is given for each entry.
molecular target: NLRP3 (Homo sapiens, UniProt Q96P20); construct: endogenous in cells; assay: IL-1β (interleukin-1β) secretion in IFN-γ-differentiated, LPS/ATP-stimulated THP-1 cells (half inhibition rate of NLRP3); conditions: IFN-γ 25 ng/mL, LPS 50 ng/mL, ATP 5 mM
pIC50: −log10 of the molar value.
METRIC_NAME: pIC50

1) CN1CCC[C@@H](Nc2nnc(-c3ccc(C(F)(F)F)cc3O)c3c2CCO3)C1
7.07
2) C[C@]1(O)C[C@@H](Nc2nnc(-c3ccc(C(F)(F)F)cc3O)c3cnccc23)C1
8.55
3) CN1CCC[C@@H](Nc2nnc(-c3ccc(C(F)(F)F)cc3O)c3cnccc23)C1
8.54
4) Cc1nc(N[C@@H]2CCC[C@@H](O)C2)nnc1-c1ccc(C(F)(F)F)cc1O
7.27
5) CN1CCC[C@@H](Nc2ncc(-c3c(O)cc(C(F)(F)F)cc3Cl)nn2)C1
7.53
6) Oc1cc(C(F)(F)F)ccc1-c1nnc(N[C@@H]2CCCC[C@H]2O)c2cc(F)ccc12
8.36
7) Cc1nc(N[C@@H]2CCCN(C(C)(C)CO)C2)nnc1-c1ccc(C(F)(F)F)cc1O
8.39
8) CN1CCC[C@@H](Nc2nnc(-c3ccc(C(F)(F)F)cc3O)c3cc[nH]c23)C1
7.67

* * *

target: NLRP3 (Homo sapiens); construct: endogenous in cells; experiment: IL-1β (interleukin-1β) secretion in IFN-γ-differentiated, LPS/ATP-stimulated THP-1 cells (half inhibition rate of NLRP3); conditions: IFN-γ 25 ng/mL, LPS 50 ng/mL, ATP 5 mM
Here the recorded log10 IC50 is given for each entry.
METRIC_NAME: log10 IC50 (log10 of the value in nM)

1. Cc1cc(C)c(-c2cnc(N[C@@H]3CCCN(C)C3)nn2)c(O)c1
1.04
2. CN1CCC[C@@H](Nc2nnc(-c3ccc(C(F)(F)F)cc3O)c3c2ccn3C)C1
1.49
3. C[C@]1(O)C[C@@H](Nc2nnc(-c3ccc(C(F)(F)F)cc3O)c3cc(F)ccc23)C1
0.67
4. OCCN1CCC[C@@H](Nc2nnc(-c3ccc(Cl)cc3O)c3ccccc23)C1
0.40
5. CC(CO)N1CCC[C@@H](Nc2nnc(-c3ccc(C(F)(F)F)cc3O)c3occc23)C1 (some centres unmarked)
0.86
6. Oc1cc(C(F)(F)F)ccc1-c1nnc(N[C@@H]2CCCC[C@H]2O)c2c(F)cccc12
0.71
7. Cc1nc(N[C@@H]2CCCN(CC(N)=O)C2)nnc1-c1ccc(C(F)(F)F)cc1O
1.80
8. CN1CCC[C@@H](Nc2nnc(-c3ccc(Cl)cc3O)c3cccnc23)C1
0.74

* * *

target: NLRP3 (Homo sapiens); construct: endogenous in cells; test: IL-1β (interleukin-1β) secretion in IFN-γ-differentiated, LPS/ATP-stimulated THP-1 cells (half inhibition rate of NLRP3); conditions: IFN-γ 25 ng/mL, LPS 50 ng/mL, ATP 5 mM
Response field label: string, one of TRUE (IC50 strictly below 6 nM) or FALSE.

1. CN1CCC[C@@H](Nc2nnc(-c3ccc(C(F)(F)F)cc3O)c3[nH]ccc23)C1 [Embodiment 21]
FALSE
2. CC(CO)N1CCC[C@@H](Nc2nnc(-c3ccc(C(F)(F)F)cc3O)c3ccoc23)C1 (stereo partly shown) [Embodiment 130]
TRUE
3. Cc1cc(Cl)cc(O)c1-c1nnc(N[C@@H]2CCCN(C)C2)c2ccccc12 [Embodiment 29]
TRUE
4. Cc1nc(N[C@@H]2CCCN(C)C2)nnc1-c1ccc(C(F)(F)F)cc1O [Embodiment 8]
TRUE
5. Cc1nc(N[C@@H]2CCCN(C(C)CO)C2)nnc1-c1ncc(C(F)(F)F)cc1O (stereo partly shown) [Embodiment 54]
FALSE
6. CN1CCC[C@@H](Nc2nnc(-c3ccc(C(F)(F)F)cc3O)c3ccoc23)C1 [Embodiment 18]
TRUE
7. CC(CO)N1CCC[C@@H](Nc2nnc(-c3ccc(C(F)(F)F)cc3O)c3ccncc23)C1 (stereo partly shown) [Embodiment 126]
TRUE
8. CN1CCC[C@@H](Nc2nnc(-c3ccc(C(F)(F)F)cc3O)c3occc23)C1 [Embodiment 15]
FALSE
9. CCN1CCC[C@@H](Nc2nnc(-c3ccc(C(F)(F)F)cc3O)c(C)n2)C1 [Embodiment 143]
TRUE
10. Cc1nc(N[C@@H]2CCCN(C(C)C)C2)nnc1-c1ccc(C(F)(F)F)cc1O [Embodiment 144]
TRUE

* * *

biological target: NLRP3 (Homo sapiens, UniProt Q96P20); construct: endogenous in cells; host or cells: THP-1 cells (IFN-γ differentiated, LPS primed, ATP stimulated); assay: IL-1β (interleukin-1β) secretion in IFN-γ-differentiated, LPS/ATP-stimulated THP-1 cells (half inhibition rate of NLRP3); assay type: cell-based; conditions: IFN-γ 25 ng/mL, LPS 50 ng/mL, ATP 5 mM
Here the recorded log10 of IC50 is given for each entry.
METRIC_NAME: log10 of IC50 (log10 of the value in nM)

1) Cc1nc(N[C@@H]2CCCN(C[C@@H](C)O)C2)nnc1-c1ccc(C(F)(F)F)cc1O
1.00
2) CN1CCC[C@@H](Nc2nnc(-c3ccc(C(F)(F)F)cc3O)c3c2C(F)(F)CC3)C1
0.30
3) Cc1cc(C)c(-c2cnc(N[C@@H]3CCCN(C(C)CO)C3)nn2)c(O)c1 (some centres unmarked)
1.38
4) CN1CCC[C@@H](Nc2nnc(-c3ccc(Cl)cc3O)c3ccncc23)C1
0.48
5) CN1CCC[C@@H](Nc2nnc(-c3ccc(Cl)cc3O)c3ncccc23)C1
1.31
6) COc1ccc2c(-c3ccc(C(F)(F)F)cc3O)nnc(N[C@@H]3CCCN(C)C3)c2c1
0.46
7) Cc1nc(N[C@@H]2CCCN(CC(C)(C)O)C2)nnc1-c1ccc(C(F)(F)F)cc1O
0.82
8) OCCN1CCC[C@@H](Nc2nnc(-c3ccc(Cl)cc3O)c3cc(F)ccc23)C1
0.51

* * *

assay: In vivo pharmacokinetic evaluation in mice (IV and PO); conditions: mouse, plasma; CD-1 mice, IV, 3 mg/kg
METRIC_NAME: clearance (mL/min/kg)

1) Cc1nc(N[C@@H]2CCCN([C@H](C)CO)C2)nnc1-c1ccc(C(F)(F)F)cc1O
10.5
2) Cc1nc(N[C@@H]2CCCN([C@@H](C)CO)C2)nnc1-c1ccc(C(F)(F)F)cc1O
15.2
3) Cc1nc(N[C@@H]2CCCN(CCO)C2)nnc1-c1ccc(C(F)(F)F)cc1O
16.8
4) Oc1cc(C(F)(F)F)ccc1-c1nnc(N[C@@H]2CCCC[C@H]2O)c2cc(F)ccc12
15.1
5) Cc1nc(N[C@@H]2CCCN(C(C)(C)CO)C2)nnc1-c1ccc(C(F)(F)F)cc1O
15.8
6) Cc1nc(N[C@@H]2CCCC[C@H]2O)nnc1-c1ccc(C(F)(F)F)cc1O
10.9

* * *

experiment: In vivo pharmacokinetic evaluation in mice (IV and PO); conditions: mouse, plasma; CD-1 mice, PO, 20 mg/kg
METRIC_NAME: AUC (ng·h/mL)

1) Cc1nc(N[C@@H]2CCCC[C@H]2O)nnc1-c1ccc(C(F)(F)F)cc1O
30000
2) Cc1nc(N[C@@H]2CCCN([C@@H](C)CO)C2)nnc1-c1ccc(C(F)(F)F)cc1O
17200
3) Cc1nc(N[C@@H]2CCCN(CCO)C2)nnc1-c1ccc(C(F)(F)F)cc1O
18800
4) Oc1cc(C(F)(F)F)ccc1-c1nnc(N[C@@H]2CCCC[C@H]2O)c2cc(F)ccc12
20300
5) Cc1nc(N[C@@H]2CCCN([C@H](C)CO)C2)nnc1-c1ccc(C(F)(F)F)cc1O
30100
6) Cc1nc(N[C@@H]2CCCN(C(C)(C)CO)C2)nnc1-c1ccc(C(F)(F)F)cc1O
18600

Hey, just so you know, these numbers are from patent US20250002470A1.
